Measured inhibition at 10 µM by item
- Test system: Ileum
- assay-name: Inhibition of barium chloride-induced contraction inRattus norvegicus albino (rat) ileum at 10^-5 mol/l after 10 min
- Type: functional
Write the answer as a number in %, unit excluded.

Exercise: Notebook: pull reported inhibition at 10 µM for Ileum, entry COC(=O)C1=C(C)NC(C)=C(C(=O)OCCN(C)Cc2ccccc2)C1c1cccc([N+](=O)[O-])c1 (stereo unspecified)
Solution: 70

Exercise: Notebook: pull reported inhibition at 10 µM for Ileum, entry CCN(CC)C(=O)C1=C(C)NC2=C(C(=O)C(C)(C)CC2)C1c1cccc(F)c1F (stereo unspecified)
Solution: 54.2

Exercise: Notebook: pull reported inhibition at 10 µM for Ileum, entry COC(=O)C1=C(C)NC2=C(C(=O)CC(C)(C)C2)C1c1c(F)cccc1F (stereo unspecified)
Solution: 74.6

Exercise: Notebook: pull reported inhibition at 10 µM for Ileum, entry CCN(CC)C(=O)C1=C(C)NC2=C(C(=O)CC(C)(C)C2)C1c1cccc(F)c1F (stereo unspecified)
Solution: 51.3

Exercise: Notebook: pull reported inhibition at 10 µM for Ileum, entry COC(=O)C1=C(C)NC2=C(C(=O)C(C)(C)CC2)C1c1c(F)cccc1F (stereo unspecified)
Solution: 79.4

Exercise: Notebook: pull reported inhibition at 10 µM for Ileum, entry CCOC(=O)C1=C(C)NC2=C(C(=O)C(C)(C)CC2)C1c1cc(F)ccc1F (stereo unspecified)
Solution: 86.8
